- Test system: OV90
- TEST PROTOCOL: Primary qHTS to identify gynecologic anti-cancer compounds using libraries of approved drugs and bioactive compounds (AID 1345084); note: % is set by controls: 0 for no effect and ±100 for the full control effect; nearly all actives have a fitted effect of over 55% in size
- CONDITION NOTES: Gynecologic cancer cell panel viability, ATPlite luminescence, 48 h; series mostly up to 57.5 µM
Records with an inconclusive call do not appear. Calls of active or inactive are those of the source. Calls come from the whole dose curve; as a rule, active = well fitted cell-killing curve with a large enough effect; inconclusive = small, poorly fitted or top-dose-only effect, or effect the other way; inactive = flat fitted curve, though single readings scatter.
Below: a set of entries, each annotated with reported activity change, negative = cytotoxicity.

>>> test_value("COC1C(O)C(OC2CCC3(C)C(CCC45CCC6C7(COC(=O)C7)OC4(O)C6(C)CCC35)C2)OC(C)C1OC1OC(CO)C(OC2OC(CO)C(O)C(O)C2O)C(O)C1O (stereo not given)")
"-0.158% [at 11.6 µM] (inactive)"
>>> test_value("CNC1CN(c2ccc3c(=O)c(C(=O)O)cn(-c4nccs4)c3n2)CC1OC (stereo not given)")
"-6.73% [at 11.6 µM] (inactive)"
>>> test_value("C[C@@H]1O[C@@H](O[C@H]2CC[C@@]3(C)C(CC[C@]4(C)C3CC=C3[C@@H]5CC(C)(C)CC[C@]5(C(=O)O[C@@H]5O[C@H](CO)[C@@H](O)[C@H](O)[C@H]5O)CC[C@]34C)[C@]2(C)CO)[C@H](O)[C@H](O[C@@H]2O[C@H](CO)[C@@H](O)[C@H](O)[C@H]2O)[C@H]1O (stereo not given in full)")
"-0.517% [at 11.6 µM] (inactive)"
>>> test_value("C[C@H]1CC[C@@]2(OC1)O[C@H]1CC3[C@@H]4CC[C@@H]5C[C@@H](O[C@@H]6O[C@H](CO)[C@@H](O[C@@H]7O[C@@H](C)[C@H](O)[C@@H](O)[C@H]7O)[C@H](O)[C@H]6O[C@@H]6O[C@H](CO)[C@@H](O)[C@H](O)[C@H]6O)CC[C@]5(C)C4CC[C@]3(C)[C@H]1[C@@H]2C (stereo not given in full)")
"-17.7% [at 11.6 µM] (inactive)"
>>> test_value("CC(=O)N[C@H]1[C@H](O[C@H]2CC[C@@]3(C)C(CC[C@]4(C)C3CC=C3C5CC(C)(C)CC[C@]5(C(=O)O)C(O)C[C@]34C)C2(C)C)O[C@H](CO[C@@H]2O[C@H](C)[C@H](O)[C@H](O)[C@H]2O[C@@H]2OC[C@@H](O)[C@H](O)[C@H]2O)[C@@H](O)[C@@H]1O (stereo not given in full)")
"7.05% [at 11.6 µM] (inactive)"

(Q) Request: activity change, negative = cytotoxicity, test system OV90, entry CC1OC(OC2C(O)COC(O[C@@H]3[C@@H](O)[C@@H](O)[C@H](OC4C(OC(=O)[C@]56CCC(C)(C)CC5C5=CCC7[C@@]8(C)C[C@H](O)[C@H](OC9OC(CO)C(O)C(O)C9O)[C@@](C)(CO)C8[C@H](O)C[C@@]7(C)[C@]5(C)CC6)OCC(O)C4O)O[C@H]3C)C2O)C(O)C(O)C1O (stereo not given in full)
(A) 13.1% [at 6.55 µM] (inactive)

(Q) Request: activity change, negative = cytotoxicity, test system OV90, entry CC(=O)OC1CC(C)(C(=O)O)CC2C3=CC(=O)C4C5(C)CCC(OC6OC(C(=O)O)C(O)C(O)C6OC6OC(C(=O)O)C(O)C(O)C6O)C(C)(C)C5CCC4(C)C3(C)CCC12C (stereo not given)
(A) 2.42% [at 11.6 µM] (inactive)

(Q) Request: activity change, negative = cytotoxicity, test system OV90, entry C[C@@H]1O[C@@H](O[C@H]2[C@H](OC(=O)[C@]34CCC(C)(C)C[C@H]3C3=CCC5[C@@]6(C)C[C@H](O)[C@H](O[C@@H]7O[C@H](CO)[C@@H](O)[C@H](O)[C@H]7O)[C@](CO)(C(=O)O)C6CC[C@@]5(C)[C@]3(C)C[C@H]4O)OC[C@H](O)[C@@H]2O)[C@H](O)[C@H](O)[C@H]1O[C@@H]1OC[C@@H](O)[C@H](O[C@@H]2OC[C@](O)(CO)[C@H]2O)[C@H]1O (stereo not given in full)
(A) -28.6% [at 6.55 µM] (inactive)

(Q) Request: activity change, negative = cytotoxicity, test system OV90, entry C[C@@H]1O[C@@H](O[C@H]2[C@H](OC(=O)[C@]34CCC(C)(C)C[C@H]3C3=CCC5[C@@]6(C)C[C@H](O)[C@H](O[C@@H]7O[C@H](C(=O)O)[C@@H](O)[C@H](O)[C@H]7O)[C@@](C)(CO)C6[C@H](O)C[C@@]5(C)[C@]3(C)C[C@H]4O)O[C@@H](CO)[C@@H]2O)[C@H](O)[C@H](O)[C@H]1O[C@@H]1OC[C@@H](O)[C@H](O[C@H]2OC[C@](O)(CO)[C@H]2O)[C@H]1O (stereo not given in full)
(A) -4.96% [at 6.55 µM] (inactive)

(Q) Request: activity change, negative = cytotoxicity, test system OV90, entry CCC(C)C(=O)O[C@H]1[C@H](O)[C@@]2(COC(C)=O)C(CC1(C)C)C1=CCC3[C@@]4(C)CC[C@H](O[C@@H]5O[C@H](C(=O)O)[C@@H](O)[C@H](O)[C@H]5O)[C@@](C)(CO)C4CC[C@@]3(C)[C@]1(C)C[C@@H]2O (stereo not given in full)
(A) 0.006% [at 11.6 µM] (inactive)
